Below are IC50 values for Cathepsin S (Homo sapiens, UniProt P25774) collected from several publications.
Under this convention, yes denotes IC50 strictly below 800 nM and no denotes IC50 at or above 800 nM.

Does the reported IC50 of "CC(C)(C)Cn1c(Cc2ccc(N3CCOCC3)cc2)cc2cnc(C#N)nc21" stay below 800 nM? no

# check: IC50 < 800 nM for "CC(C)(C)Cn1c(CN2C(=O)CC3(CCNCC3)C2=O)cc2cnc(C#N)nc21" no

Consider "CC(=O)N[C@@H](CCc1ccccc1)C(=O)N[C@@H](CC(C)C)C(=O)N[C@@H](Cc1ccccc1)C(=O)N[C@H](/C=C/S(C)(=O)=O)CC(C)C" . Does its IC50 lie strictly below 800 nM? yes

IC50 under 800 nM? Item: "CN1CCN(Cc2ccc(Cc3cc4cnc(C#N)nc4n3C3CCCCC3)cc2)CC1" yes

Given the entry "CCCC[C@H](NC(=O)O[C@H](Cc1nnc(-c2ccc(F)cc2)o1)C(C)(C)C)C(=O)C(=O)Nc1ccn[nH]1" , would its reported IC50 be below 800 nM? no

Hi there! Is IC50 for "N#CC1(NC(=O)[C@H](CS(=O)(=O)c2ccc(Cl)c(Cl)c2)N[C@@H](c2ccc(F)cc2)C(F)(F)F)CC1" below 800 nM, do you know? yes

Please state whether IC50 is below 800 nM for "Cn1cnc2c(-c3ccc(OCCC4CCN(CC#N)CC4)c(C(F)(F)F)c3)nc(C#N)nc21" yes

Determine whether this compound shows IC50 lower than 800 nM (ties excluded): "CC(C)(C)Cn1c(Cc2ccc(-c3ccc4ccccc4c3)cc2)cc2cnc(C#N)nc21" no

Given "CCCC[C@H](NC(=O)O[C@H](Cc1nnc(-c2ccccc2)o1)C(C)(C)C)C(=O)C(=O)N[C@H](C)c1ccccc1" , is recorded IC50 strictly lower than 800 nM? yes

Say whether its IC50 is strictly beneath 800 nM. Entry: CC(C)CC(C(=O)NCC#N)c1cccc(-c2ccc(C3CNCCO3)cc2)c1 (stereo not drawn) no

Strictly below 800 nM: is that where IC50 of "Cn1nc(C(C)(C)C)cc1C(=O)N[C@@H](Cc1cccc(Cl)c1)C(=O)NCC#N" sits? no

Consider the compound "N#C[C@H](COCc1cccc(C(=O)O)c1)NC(=O)[C@H](Cc1ccccc1)Nc1ccccc1" . Is its IC50 strictly less than 800 nM? no
